assay_method_text: Solubility determination (gravimetric, saturated aqueous samples)
Assay type: physicochemical
test_context: water

molecule	readout_units	solubility thermodynamic at 2 h
CC(=O)Oc1ccccc1C(=O)O [Acetylsalicylsäure, 2-Acetoxybenzoesäure, reference compound]	µg/mL	4260
